test: Tmax in Plasmodium falciparum 3D70087/N9 infected NODscidIL2Rgamma-null mouse at 50 mg/kg, po by LC-MS/MS analysis; format: ADME, organism-based; set-up: dose 50 mg/kg, route oral; details: in vivo
attribute.measured: Tmax

Q. Reported Tmax for CC(Oc1ccc2nc(N)n(CC(O)c3ccc(C(F)(F)F)cc3Cl)c2n1)C(F)(F)F (racemic) : what is it?
A. 4 h

###

assay: Selectivity index, ratio of IC50 for human A549 cells to IC50 for Plasmodium falciparum; format: toxicity, cell-based; settings: read-out: Ratio IC50
selectivity ratio below 300 gives rule not met; selectivity ratio at or above it gives rule met.

Q. Tell me whether selectivity ratio is at least 300 here: Nc1nc2ccc(Cl)cc2n1CC(O)c1cccc(Cl)c1Cl (racemic)
A. rule not met

Q. Tell me whether selectivity ratio is at least 300 here: Nc1nc2ccc(OC3CCOC3)nc2n1CC(O)c1ccc(C(F)(F)F)cc1Cl (racemic)
A. rule met

Q. Tell me whether selectivity ratio is at least 300 here: Nc1nc2ccc(OCC(F)(F)F)nc2n1CC(O)c1ccc(C(F)(F)F)cc1Cl (racemic)
A. rule not met

Q. Tell me whether selectivity ratio is at least 300 here: CN1CCN(c2ccc3nc(N)n(CC(O)c4ccc(C(F)(F)F)cc4Cl)c3n2)CC1 (racemic)
A. rule met

Q. Tell me whether selectivity ratio is at least 300 here: Nc1nc2ccc(NCC(F)(F)F)nc2n1CC(O)c1ccc(Cl)cc1Cl (racemic)
A. rule met

Q. Tell me whether selectivity ratio is at least 300 here: Nc1nc2cccnc2n1CC(O)c1cccc(Cl)c1Cl (racemic)
A. rule not met

Q. Tell me whether selectivity ratio is at least 300 here: Nc1nc2ccc(C(F)(F)F)cc2n1CC(O)c1ccc(C(F)(F)F)cc1Cl (racemic)
A. rule not met

###

assay: Clearance in Wistar rat at 1 mg/kg, iv; type: ADME, organism-based; design: dose 1 mg/kg, route intravenous; conditions: in vivo
attribute.measured: clearance (mL/min/kg)
Response body: numeric value in mL/min/kg, unit text excluded.

Q. Reported clearance for CC(Oc1ccc2nc(N)n(CC(O)c3ccc(C(F)(F)F)cc3Cl)c2n1)C(F)(F)F (racemic) : what is it?
A. 22.6

###

test: AUC (0 to 23 hrs) in Plasmodium falciparum 3D70087/N9 infected NODscidIL2Rgamma-null mouse at 3 mg/kg, po by LC-MS/MS analysis; assay type: ADME, organism-based; set-up: time < 23 hr, dose 3 mg/kg, route oral; conditions: plasma
attribute.measured: AUC(0-t) at 23 h (ng·h/mL)
Response body: numeric value in ng·h/mL, unit text excluded.

Q. Reported AUC(0-t) at 23 h for CC(Oc1ccc2nc(N)n(CC(O)c3ccc(C(F)(F)F)cc3Cl)c2n1)C(F)(F)F (racemic) : what is it?
A. 480

###

experiment: Selectivity index, ratio of IC50 for human A549 cells to IC50 for Plasmodium falciparum; type: toxicity, cell-based; settings: read-out: Ratio IC50
Can you tell me selectivity ratio for the items I'm about to list?

Q. Reported selectivity ratio for Nc1nc2cnccc2n1CC(O)c1ccc(Cl)cc1Cl (racemic) : what is it?
A. > 25

Q. Reported selectivity ratio for Cc1cc(Cl)ccc1C(O)Cn1ccnc1N (racemic) : what is it?
A. > 50

Q. Reported selectivity ratio for Nc1nccn1CC(O)c1ccc(Cl)cc1F (racemic) : what is it?
A. > 50
